Test system: human α-1-acid glycoprotein (AGP)
assaySummary: Fluorometric probe displacement assay
assayConditions: human, Ki values (text summary over probes), titration of probe-AGP solutions
Where a SMILES comes first, the peptide text is derived from it. Bridges are numbered along the chain shown (N, C = ends). [ ]: non-standard residue; d: D form. The star is where a group is joined. X1 = CC[C@H](C)CCCCC(=O)*; Dab = NCC[C@H](N)C(=O)O
endpoint: Ki

compound	assayedTarget	reportedResult
CC[C@H](C)CCCCC(=O)N[C@@H](CCN)C(=O)N[C@H](C(=O)N[C@@H](CCN)C(=O)N[C@H]1CCNC(=O)[C@H]([C@@H](C)O)NC(=O)[C@H](CCN)NC(=O)[C@H](CCN)NC(=O)[C@H](CC(C)C)NC(=O)[C@@H](CC(C)C)NC(=O)[C@H](CCN)NC1=O)[C@@H](C)O [Colistin, colistin] (X1-[Dab]T[Dab][Dab][Dab][dL]L[Dab][Dab]T; lactam 4-C (inferred); N-terminus assumed)	human α-1-acid glycoprotein (AGP)	> 200 µM

###

Tested on: human AGP
assaySummary: in vitro
assayConditions: pH 7.4
endpoint: Kd at 2 min

smilesStructure	reportedResult
CCN(CC)c1ccc2nc3c4ccccc4c(=O)cc-3oc2c1	910 nM

###

System: human α-1-acid glycoprotein (AGP)
assaySummary: Fluorometric probe displacement assay
assayConditions: human, Ki, displacement of ANS, probe ANS; 20°C; mean ± SE, n = 3 unless otherwise indicated; ND = not detected
Where a SMILES comes first, the peptide text is derived from it. Bridges are numbered along the chain shown (N, C = ends). [ ]: non-standard residue; d: D form. The star is where a group is joined. X1 = CC[C@H](C)CCCCC(=O)*; Dab = NCC[C@H](N)C(=O)O

compound	assayedTarget	Ki
CC[C@H](C)CCCCC(=O)N[C@@H](CCN)C(=O)N[C@H](C(=O)N[C@@H](CCN)C(=O)N[C@H]1CCNC(=O)[C@H]([C@@H](C)O)NC(=O)[C@H](CCN)NC(=O)[C@H](CCN)NC(=O)[C@H](CC(C)C)NC(=O)[C@@H](CC(C)C)NC(=O)[C@H](CCN)NC1=O)[C@@H](C)O [Colistin, colistin] (X1-[Dab]T[Dab][Dab][Dab][dL]L[Dab][Dab]T; lactam 4-C (inferred); N-terminus assumed)	human α-1-acid glycoprotein (AGP)	351 µM

###

System: human AGP
assaySummary: in vitro
assayConditions: pH 7.4, Ki, displacement of ANS

compound	Ki at 2 min (nM)
CN(C)CCCN1c2ccccc2Sc2ccc(Cl)cc21 [Chlorpromazine]	140

###

System: human AGP
assaySummary: in vitro
assayConditions: pH 7.4, Ki, displacement of NR

smilesStructure	Ki at 2 min [nM]
CN(C)CCCN1c2ccccc2Sc2ccc(Cl)cc21	670
